The values you see were collected from ChEMBL document CHEMBL1201862.

test system: SN12C; experiment: NCI tumour cell line growth inhibition, 48 h
The source made the active and inactive calls. Rule as the data show it: active = GI50 up to about 1.1 µM and inactive = higher.
Exercise: state measured GI50 for each of the molecules provided.

// below: answered molecules
- molecule: "CCOC(=O)c1c(CN2CCNCC2)nc2ccc(Cl)cc2c1-c1ccccc1"
  attribute measured: "GI50"
  result: "4.92 µM (inactive)"
- molecule: "COc1cc2c(cc1OCCCC(=O)Nc1cc(C(=O)NCCCN(C)C)n(C)n1)N=CC1CCCN1C2=O (centres undefined)"
  attribute measured: "GI50"
  result: "7.11 µM (inactive)"
- molecule: "CC/C=C/c1cc2cc[nH]c2c2c1C(C)C[C@@H]2C (some centres undefined)"
  attribute measured: "GI50"
  result: "18.9 µM (inactive)"
- molecule: "CCOC(=O)C(C)c1nc2cc(N3CCOCC3)c(F)cc2[nH]c1=O (centres undefined)"
  attribute measured: "GI50"
  result: "> 100 µM (inactive)"
- molecule: "Cc1ccc(C(=O)CC(O)(C(F)(F)F)C(F)(F)F)cc1[N+](=O)[O-]"
  attribute measured: "GI50"
  result: "10 µM (inactive)"
- molecule: "Nc1csc(-c2scc3c2OCCO3)c1N"
  attribute measured: "GI50"
  result: "17.3 µM (inactive)"
- molecule: "COc1ccccc1NC(=O)CC(=O)n1nc(C)c(/N=N/c2ccccc2C(=O)O)c1C"
  attribute measured: "GI50"
  result: "> 100 µM (inactive)"
- molecule: "CCN(CC)CC(C(=O)Nc1c(C)cccc1C)/C(C)=N\\NC(=O)c1ccncc1 (centres undefined)"
  attribute measured: "GI50"
  result: "> 100 µM (inactive)"

Please state, for each entry, its recorded GI50.
1. Cn1c(=O)c2c3ccccc3n(C)c2n(C)c1=O
2. COc1ccccc1NC(=S)Nc1cc(C)ccn1

Solution:
["> 100 µM (inactive)", "> 100 µM (inactive)"]

Record GI50 per entry; entries follow.
1. CC1(C)C(=O)/C=C\C(=O)C(C)(C)C(=O)/C=C\C(=O)C(C)(C)C2=CC=C(O2)C(C)(C)C(=O)/C=C\C1=O
2. Clc1ccc(SCCCCCCCCCCSc2ccc(Cl)cc2)cc1
3. COC1(CC[C@@H](C)COC2OC(CO)C(O)C(O)C2O)O[C@H]2C[C@H]3[C@@H]4CC=C5C[C@@H](OC6OC(CO)C(OC7OC(C)C(O)C(O)C7O)C(O)C6OC6OC(C)C(O)C(O)C6O)CC[C@]5(C)[C@H]4CC[C@]3(C)[C@H]2[C@@H]1C (some centres undefined)
4. CC/C=C/C(/C=C/C[C@]1(CC)C[C@H](CC)[C@H](CC(=O)O)OO1)CC (some centres undefined)
5. CCN(CC)CCn1nc(N)c2nc3cc(Cl)ccc3nc21
6. CC(=O)N1CCN(C=S)CC1

Solution:
1. 5.48 µM (inactive)
2. > 100 µM (inactive)
3. 5.85 µM (inactive)
4. 5.65 µM (inactive)
5. 45.1 µM (inactive)
6. > 100 µM (inactive)

* * *

test system: XF498; assay: NCI tumour cell line growth inhibition, 48 h
Calls of active or inactive are those of the source. Cut-off read from the data, not from the text of the source: active = GI50 up to about 1.1 µM and inactive = higher.
Give measured GI50 for each item. Keep answers brief.

Reference set, count: 5
- molecule: "COc1ccc(/C=C/c2cc(OC)c(OC)c(OC)c2)cc1OC"
  GI50: "77.8 µM (inactive)"
- molecule: "Cc1ccc(C(=O)N2CCN(C(=O)c3ccc(C)cc3)c3ccccc32)cc1"
  GI50: "4.93 µM (inactive)"
- molecule: "COC(=O)CC1C(=O)OCc2c1cc1n(c2=O)Cc2c-1nc1ccccc1c2OC (stereo unspecified)"
  GI50: "> 100 µM (inactive)"
- molecule: "CCCCS(=N)(=O)CC[C@H](N)C(=O)O (stereo partly specified)"
  GI50: "476 µM (inactive)"
- molecule: "C[n+]1c2ccccc2c(NC(CS)C(=O)O)c2ccccc21 (stereo unspecified)"
  GI50: "18.4 µM (inactive)"

Could I get GI50 for every one of these entries?
1. COc1ccccc1NC(=O)CC(=O)n1nc(C)c(/N=N/c2ccccc2C(=O)O)c1C
2. COC(=O)/C=C/c1c(CC=C(C)C)ncn1C
3. COc1cc(C=C2C(=O)NC(=O)NC2=O)cc(OC)c1OC
4. CC(=O)NC1=C(Nc2ccc(C)cc2)C(=O)c2ccccc2C1=O
5. COc1cccc(N2C(Cl)C(=O)C2c2c[nH]c3ccccc23)c1 (stereo unspecified)
6. CCOC(=O)c1ccc(C)c(/N=N/N(C)C)c1

Solution:
1: > 100 µM (inactive); 2: 41.3 µM (inactive); 3: > 100 µM (inactive); 4: 24.9 µM (inactive); 5: > 100 µM (inactive); 6: > 100 µM (inactive)

* * *

system: M14; test: NCI tumour cell line growth inhibition, 48 h
Calls of active or inactive are those of the source. Rule as the data show it: active = GI50 up to about 1.1 µM and inactive = higher.
Just give me one of these, please: active, inactive

Illustrative cases are given below, each with its answer.
- molecule: "COC(CO[Si](C)(C)N[Si](C)(C)OCC(OC)c1ccccc1)c1ccccc1 (stereo not drawn)"
  qualitative label: "inactive"
- molecule: "Cc1ccc(C(=O)CC(O)(C(F)(F)F)C(F)(F)F)cc1[N+](=O)[O-]"
  qualitative label: "inactive"
- molecule: "CC(=O)OCCC(O[Si](c1ccccc1)(c1ccccc1)C(C)(C)C)C(C)(C)O (stereo not drawn)"
  qualitative label: "inactive"

From here, focus on the item given below.
Problem: So what was the verdict on CCOP(=O)(OCC)/C(=C\n1c(=S)[nH]c2cc(C)ccc21)C(=O)OC in this test?
Solution: inactive

* * *

system: SK-MEL-5; test: NCI tumour cell line growth inhibition, 48 h
Active and inactive are the calls of the source. Cut-off read from the data, not from the text of the source: active = GI50 up to about 1.1 µM and inactive = higher.
Kindly state GI50 for each of the entries shown.

- compound: "CCCCOC(=O)C1CN2C(=NC1(C(F)(F)F)C(F)(F)F)Sc1ccccc12 (centres undefined)"
  GI50: "20 µM (inactive)"
- compound: "CC(C)(C)c1cc(OCc2nnc3sc(S)nn23)c(Cl)cc1OCc1nnc2sc(S)nn12"
  GI50: "14.5 µM (inactive)"
- compound: "COC(=O)[C@@]12C3=NO[C@]1(C(=O)OC)C(O[Si](C)(C)C(C)(C)C)C1OC(C)(C)OC1[C@@H]2[C@@H](OCc1ccccc1)CC3 (some centres undefined)"
  GI50: "85.5 µM (inactive)"
- compound: "COc1cc(C2SCC(=O)N2c2ccc(Oc3ccc(Cl)cc3)c(Cl)c2)cc(OC)c1OC (centres undefined)"
  GI50: "17.9 µM (inactive)"
- compound: "CCCCCOCC(O)CO (centres undefined)"
  GI50: "> 100 µM (inactive)"
- compound: "Cc1cc([N+](=O)[O-])c(C)c(Br)c1C"
  GI50: "> 100 µM (inactive)"
- compound: "CCC/C(Cl)=N/OC(NC(=O)OCC)(C(F)(F)F)C(F)(F)F"
  GI50: "23.8 µM (inactive)"
- compound: "O=C1c2cc([N+](=O)[O-])ccc2-c2ccc3c4ccc5c6c(ccc(c7ccc1c2c73)c64)C(=O)c1cc([N+](=O)[O-])ccc1-5"
  GI50: "> 100 µM (inactive)"

Problem: Can you share its GI50? I mean this compound: [N-]=[N+]=C(C(=O)OCC#CCOC(=O)C(=[N+]=[N-])S(=O)(=O)c1ccccc1)S(=O)(=O)c1ccccc1
Solution: > 10 µM (inactive)

* * *

tested on: NCI-H522; experiment: NCI tumour cell line growth inhibition, 48 h
Activity calls are given as the source filed them. Cut-off read from the data, not from the text of the source: active = GI50 up to about 1.1 µM and inactive = higher.
Assign GI50 to each entry below.

Worked examples follow.
- compound: "CCOC(=O)C(NC(=O)CC)(Nc1ccc(S(=O)(=O)Nc2nc(C)cc(C)n2)cc1)C(F)(F)F (stereo not given)"
  attribute measured: "GI50"
  result: "31.6 µM (inactive)"
- compound: "CC1OC(n2cc(F)c(=O)[nH]c2=O)C(O[Si](C)(C)C(C)(C)C)C1O[Si](C)(C)C(C)(C)C (stereo not given)"
  attribute measured: "GI50"
  result: "4.34 µM (inactive)"
- compound: "Cc1cccc2c(=O)c3cccc(CC(=O)O)c3oc12"
  attribute measured: "GI50"
  result: "> 100 µM (inactive)"
- compound: "Oc1cc(-c2ccc3c(c2)OCO3)nc2cc3c(cc12)OCO3"
  attribute measured: "GI50"
  result: "40.2 µM (inactive)"

Provide each entry's GI50 from the list below.
1. COc1ccccc1NC(=O)CC(=O)n1nc(C)c(/N=N/c2ccccc2C(=O)O)c1C
2. Cc1ccc(NC(=O)CC/C(CC(=O)C(C)(C)C)=N\NC(=O)C[n+]2ccccc2)cc1C
3. c1cc2c(c(-c3c4ccccc4nc4ccccc34)c1)CC1(CC2)OCCO1
4. CN1CCN(C2CC(=O)c3c(Cl)sc(Cl)c32)CC1 (stereo not given)
5. Cc1ccc(S(=O)(=O)N/N=C2\CCCCC23CCC(=O)NC3)cc1 (stereo not given)
6. CC(=O)Oc1ccc2cc(Oc3ccccc3)c(=O)oc2c1

Solution:
["43.9 µM (inactive)", "> 100 µM (inactive)", "> 100 µM (inactive)", "4.8 µM (inactive)", "> 100 µM (inactive)", "30.5 µM (inactive)"]
